FYI, the data here is from patent US10577349B2.

IC50 values, listed per item
- targetOrSystem: HCV cap-independent translation
- test: In vitro translation assay, FF-HCV-Ren construct, cap-independent (Ren luciferase)

Sample records with IC50:
COc1ccc(-c2c(C(=O)/C=C/c3nc4ccccc4[nH]3)c(=O)[nH]c3ccc(Cl)cc23)cc1    > 20 µM
O=C(/C=C/c1nc2ccccc2[nH]1)c1c(-c2cccnc2)c2cc(Cl)ccc2[nH]c1=O    10 to 20 µM
O=C(/C=C/c1ccccn1)c1c(-c2cncc(F)c2)c2cc(Cl)ccc2[nH]c1=O    10 to 20 µM

For the compound shown here, `CN(C)c1ccc(-c2c(C(=O)/C=C/c3cncc(F)c3)c(=O)[nH]c3ccc(Cl)cc23)cc1` , give the reported IC50.
2 to 10 µM

Ok, now `O=C(/C=C/c1ccncc1)c1c(-c2ccccc2)c2ccncc2[nH]c1=O`
> 20 µM

Note, next up: O=C(/C(Br)=C/c1cncc(F)c1)c1c(-c2ccccc2)c2cc(Cl)ccc2[nH]c1=O (single isomer, unassigned)
2 to 10 µM

Next up: `Cc1ccc(/C=C/C(=O)c2c(-c3ccccc3)c3cc(Cl)ccc3[nH]c2=O)nc1`
10 to 20 µM

Try this compound next: `COc1cncc(-c2c(C(=O)/C=C/c3ccccn3)c(=O)[nH]c3ccc(Cl)cc23)c1`
10 to 20 µM

Try this compound too: `COc1ccc(/C=C/C(=O)c2c(-c3ccccc3)c3cc(Cl)ccc3[nH]c2=O)c(F)c1`
2 to 10 µM

Then `O=C(/C=C/c1ccc(Cl)cc1)c1c(-c2ccccc2)c2cc(Cl)ccc2[nH]c1=O` ?
2 to 10 µM

Again, but for `O=C(/C=C/c1cncc(F)c1)c1c(-c2ccc(Cl)cc2)c2cc(Cl)ccc2[nH]c1=O`
2 to 10 µM

Would you kindly repeat that for `O=C(/C=C/c1ccccn1)c1c(-c2ccc(F)cc2)c2cc(Cl)ccc2[nH]c1=O` ?
2 to 10 µM

Input `Cc1ccnc(-c2c(C(=O)/C=C/c3cncc(F)c3)c(=O)[nH]c3ccc(Cl)cc23)c1`
> 20 µM

Try this compound too: `COCCn1c(/C=C/C(=O)c2c(-c3ccccc3)c3cc(Cl)ccc3[nH]c2=O)nc2ccccc21`
2 to 10 µM

Ok, now `COCc1cncc(/C=C/C(=O)c2c(-c3ccccc3)c3cc(Cl)ccc3[nH]c2=O)c1`
2 to 10 µM

Queued: `O=C(/C=C/c1ccccc1)c1c(C2CCCCC2)c2cc(Cl)ccc2[nH]c1=O`
> 20 µM

Moving on to `O=C(/C=C/c1ccccn1)c1c(-c2ccc(C(F)(F)F)cc2)c2cc(Cl)ccc2[nH]c1=O`
2 to 10 µM

Would you kindly repeat that for `O=C(CCc1nc2ccccc2[nH]1)c1c(-c2ccccc2)c2cc(Cl)ccc2[nH]c1=O` ?
> 20 µM

----------
- targetOrSystem: EmCV Cap-independent translation
- test: In vitro translation assay, FF-EmCV-Ren construct, cap-independent (Ren luciferase)
reportedProperty: IC50

O=C(/C=C/c1ccsc1)c1c(-c2ccccc2)c2cc(Cl)ccc2[nH]c1=O    2 to 10 µM
Cc1cncc(-c2c(C(=O)/C=C/c3ccccn3)c(=O)[nH]c3ccc(Cl)cc23)c1    2 to 10 µM
Cc1cncc(/C=C/C(=O)c2c(-c3ccccc3)c3cc(Cl)ccc3[nH]c2=O)c1    2 to 10 µM

Please give the measured IC50 for this molecule: `Nc1ccc2[nH]c(=O)c(C(=O)/C=C/c3nc4ccccc4[nH]3)c(-c3ccccc3)c2c1`
10 to 20 µM

Now give it for `O=C(/C=C/c1nc2ccccc2n1Cc1ccccc1)c1c(-c2ccccc2)c2cc(Cl)ccc2[nH]c1=O` too.
2 to 10 µM

Can you handle `O=C(/C=C/c1ccc(F)c(F)c1)c1c(-c2ccccc2)c2cc(Cl)ccc2[nH]c1=O` next?
2 to 10 µM

Another: `Cc1ccnc(-c2c(C(=O)/C=C/c3cncc(F)c3)c(=O)[nH]c3ccc(Cl)cc23)c1`
10 to 20 µM
